This section presents compounds with their documented AC50 values.
Biological target: B2 bradykinin receptor (Homo sapiens); further: assay procedure not described here
Sequence (P30411 whole entry): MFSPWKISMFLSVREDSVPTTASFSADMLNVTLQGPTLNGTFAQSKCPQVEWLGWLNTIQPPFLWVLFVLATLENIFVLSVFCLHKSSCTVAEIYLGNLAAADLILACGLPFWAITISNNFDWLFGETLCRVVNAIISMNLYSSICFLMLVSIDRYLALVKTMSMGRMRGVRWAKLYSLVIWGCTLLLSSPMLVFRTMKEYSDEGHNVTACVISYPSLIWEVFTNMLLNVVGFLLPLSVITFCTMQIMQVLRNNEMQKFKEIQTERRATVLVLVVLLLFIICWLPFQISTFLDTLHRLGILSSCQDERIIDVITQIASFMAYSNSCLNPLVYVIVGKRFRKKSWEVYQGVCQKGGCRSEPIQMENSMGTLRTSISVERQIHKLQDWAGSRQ

Would you please look over these solved cases?
{"compound": "CCCOc1ccc(C(=O)OCCN(CC)CC)cc1N", "AC50": "> 30 µM"}
{"compound": "Cc1c(Cl)cccc1Nc1ccccc1C(=O)O", "AC50": "> 30 µM"}

Quick note, AC50 for CC(C)C(=O)OCC(=O)[C@@]12O[C@H](C3CCCCC3)O[C@@H]1C[C@H]1[C@@H]3CCC4=CC(=O)C=C[C@]4(C)[C@H]3[C@@H](O)C[C@@]12C [CICLESONIDE] landed at > 10 µM

Quick note, AC50 for COc1ccc2c(c1)c(CC(=O)OCC(=O)O)c(C)n2C(=O)c1ccc(Cl)cc1 landed at > 30 µM
